- measurement target: delta opioid receptor (NG108-15 cell membranes) (Mus musculus)
- Construct: NG108-15 cell membranes were purchased from Applied Cell Sciences (Rockville, Md.); host or cells: NG108-15 cells (membranes purchased)
- Sequence (P32300 whole entry): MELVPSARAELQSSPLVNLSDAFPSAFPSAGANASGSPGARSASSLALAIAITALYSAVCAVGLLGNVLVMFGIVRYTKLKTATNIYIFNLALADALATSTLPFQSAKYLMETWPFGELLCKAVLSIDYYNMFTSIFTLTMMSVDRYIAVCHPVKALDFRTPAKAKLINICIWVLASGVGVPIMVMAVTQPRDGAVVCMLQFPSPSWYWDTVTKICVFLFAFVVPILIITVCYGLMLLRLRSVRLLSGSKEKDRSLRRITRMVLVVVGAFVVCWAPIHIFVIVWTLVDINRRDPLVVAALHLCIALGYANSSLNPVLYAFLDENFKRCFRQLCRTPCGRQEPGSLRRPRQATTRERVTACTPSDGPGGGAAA
- protocol description: Delta Opioid Receptor Functional Assay: [35S]GTPγS Binding in NG108-15 Cell Membranes, Version 2; further: test concentration or dose not given here
- Assay type: biochemical
- condition details: NG108-15 cell membranes, version 2; % inhibition of agonist-stimulated GTPγS binding
recorded endpoint: DOR GTP-binding Assay v2 (% I) (%)

| molecule | readout number |
| --- | --- |
| COc1ccc(CN(C(=O)[C@@H](N)Cc2c(C)cc(C(N)=O)cc2C)[C@@H](C)c2nc(-c3ccccc3)c[nH]2)cc1OC [Cpd 75] | 65.35 |
| Cc1cc(O)cc(C)c1C[C@H](N)C(=O)N(Cc1ccc(C(F)(F)F)cc1)[C@@H](C)c1nc(-c2ccccc2)c[nH]1 [Cpd 249] | 20.14 |
| COc1ccc(CN(C(=O)[C@@H](N)Cc2c(C)cc(O)cc2C)[C@@H](C)c2nc(-c3ccccc3)c[nH]2)c2ccccc12 [Cpd 247] | 41.89 |
| Cc1cc(C(N)=O)cc(C)c1C[C@H](N)C(=O)N(Cc1ccccc1C(N)=O)[C@@H](C)c1nc(-c2ccccc2)c[nH]1 [Cpd 1] | 22.10 |
